Data origin, for the record: paper PMC6205183

- Test system: K562 DOX-R cells
- test.description: Viability assay (Annexin V/7AAD), K562 DOX-R
- Assay type: cell-based, human
- condition.set: Homo sapiens; K562 DOX-R; read-out: TKI viability assay IC50
parameter.measured: IC50

1) Cc1nc(Nc2ncc(C(=O)Nc3c(C)cccc3Cl)s2)cc(N2CCN(CCO)CC2)n1: > 200 nM

Now consider a different compound.
Tell us which IC50 value is on record for "Cc1cn(-c2cc(NC(=O)c3ccc(C)c(Nc4nccc(-c5cccnc5)n4)c3)cc(C(F)(F)F)c2)cn1" > 1000 nM

====

- Test system: K562 DOX 55D-R cells
- test.description: cells
- condition.set: Homo sapiens, K562, read-out: TKI viability assay IC50
Measured IC50, listed per entry for reference.

1. Cc1nc(Nc2ncc(C(=O)Nc3c(C)cccc3Cl)s2)cc(N2CCN(CCO)CC2)n1: > 200 nM

Tell us which IC50 value is on record for "Cc1cn(-c2cc(NC(=O)c3ccc(C)c(Nc4nccc(-c5cccnc5)n4)c3)cc(C(F)(F)F)c2)cn1" > 1000 nM
